targetDesc: RAF1 (C-RAF) Y340D/Y341D (Homo sapiens (Human), UniProt P04049, Y340D/Y341D)
Sequence (P04049 whole entry Y340D/Y341D): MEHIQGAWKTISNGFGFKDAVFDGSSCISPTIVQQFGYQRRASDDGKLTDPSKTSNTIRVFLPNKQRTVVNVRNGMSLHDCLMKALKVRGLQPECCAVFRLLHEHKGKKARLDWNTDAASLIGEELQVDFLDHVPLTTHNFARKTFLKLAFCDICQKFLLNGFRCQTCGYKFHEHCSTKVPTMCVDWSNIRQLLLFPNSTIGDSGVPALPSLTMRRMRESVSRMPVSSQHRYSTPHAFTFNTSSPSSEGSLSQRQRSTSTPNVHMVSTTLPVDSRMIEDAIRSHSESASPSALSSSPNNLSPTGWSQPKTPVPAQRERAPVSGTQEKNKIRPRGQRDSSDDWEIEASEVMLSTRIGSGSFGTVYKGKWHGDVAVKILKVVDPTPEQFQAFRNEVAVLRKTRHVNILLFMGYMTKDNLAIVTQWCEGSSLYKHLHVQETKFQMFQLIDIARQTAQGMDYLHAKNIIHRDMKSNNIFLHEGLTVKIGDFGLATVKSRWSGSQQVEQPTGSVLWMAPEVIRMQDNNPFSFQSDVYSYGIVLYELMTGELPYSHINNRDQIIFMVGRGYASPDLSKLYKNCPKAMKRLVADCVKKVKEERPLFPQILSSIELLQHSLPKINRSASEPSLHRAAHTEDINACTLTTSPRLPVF
experiment: RAF kinase inhibitory activity, Kinase Profiling Service
Where a name gives a salt, the structure may show the parent alone.
valueType: pIC50
Just so you know, pIC50 here is -log10 of the concentration in molar units; reply with that number alone.

The compound Cc1ccc2c(Nc3ccc(O)c(Cl)c3F)nccc2c1NC(=O)c1csc2c(N)ncnc12 [Compound•2HCl, dihydrochloride] showed pIC50 equal to 7.68

---

targetDesc: B-RAF V600E (Homo sapiens (Human), UniProt P15056, V600E)
Sequence (P15056 whole entry V600E): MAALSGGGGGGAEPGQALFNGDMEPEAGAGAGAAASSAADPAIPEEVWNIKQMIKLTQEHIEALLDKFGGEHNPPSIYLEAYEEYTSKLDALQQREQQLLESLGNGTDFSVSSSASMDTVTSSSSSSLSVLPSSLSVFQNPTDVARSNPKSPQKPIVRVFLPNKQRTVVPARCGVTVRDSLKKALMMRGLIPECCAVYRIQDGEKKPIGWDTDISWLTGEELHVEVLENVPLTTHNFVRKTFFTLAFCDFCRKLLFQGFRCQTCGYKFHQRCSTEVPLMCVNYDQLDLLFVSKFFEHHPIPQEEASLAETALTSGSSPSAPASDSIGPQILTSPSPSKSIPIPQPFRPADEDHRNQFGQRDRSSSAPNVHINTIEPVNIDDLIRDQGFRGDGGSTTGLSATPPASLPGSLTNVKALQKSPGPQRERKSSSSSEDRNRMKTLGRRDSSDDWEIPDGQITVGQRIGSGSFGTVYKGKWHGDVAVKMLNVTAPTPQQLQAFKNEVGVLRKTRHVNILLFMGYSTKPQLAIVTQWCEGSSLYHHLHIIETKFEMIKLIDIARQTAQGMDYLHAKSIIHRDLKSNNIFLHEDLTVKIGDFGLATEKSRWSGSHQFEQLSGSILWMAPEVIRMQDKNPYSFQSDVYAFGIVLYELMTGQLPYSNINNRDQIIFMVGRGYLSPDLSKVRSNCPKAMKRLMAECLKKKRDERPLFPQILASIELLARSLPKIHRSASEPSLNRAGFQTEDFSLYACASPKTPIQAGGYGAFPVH
experiment: RAF kinase inhibitory activity, Kinase Profiling Service
Counter-ions that a name gives are not always drawn.
valueType: pIC50
Just so you know, pIC50 here is -log10 of the concentration in molar units; reply with that number alone.

The compound Cc1ccc2c(Nc3ccc(O)c(Cl)c3F)nccc2c1NC(=O)c1csc2c(N)ncnc12 [Compound•2HCl, dihydrochloride] showed pIC50 equal to 7.52
